Measured EC50 values are reported for all entries that follow.
- targetEntity: T1, Peptide-7 (cysteine pairing not given here; also: biotinylated, site not given here)
- T1 peptide: EDFCKLYNWPICYQ
- testSummary: ELISA, Fab on captured biotin-peptide
Where no end group is shown, it is not given here.

# binder, EC50 [nM]
data = [
    ("TBD-17 (HC S104A) (Fab, V domains shown, Fab; also called HC S104A mutant) VH: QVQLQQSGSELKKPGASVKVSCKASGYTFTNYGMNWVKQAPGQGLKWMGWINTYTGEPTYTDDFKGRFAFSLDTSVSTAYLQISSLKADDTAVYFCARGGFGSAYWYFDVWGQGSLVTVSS VL: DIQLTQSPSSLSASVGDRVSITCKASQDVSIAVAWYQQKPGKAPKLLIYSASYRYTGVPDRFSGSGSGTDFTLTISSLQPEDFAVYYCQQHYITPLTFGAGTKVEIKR", 15.6),
    ("TBD-22 (HC D109A) (Fab, V domains shown, Fab; also called HC D109A mutant) VH: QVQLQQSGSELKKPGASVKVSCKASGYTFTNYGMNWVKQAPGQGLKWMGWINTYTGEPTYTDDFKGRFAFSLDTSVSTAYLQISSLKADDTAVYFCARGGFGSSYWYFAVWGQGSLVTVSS VL: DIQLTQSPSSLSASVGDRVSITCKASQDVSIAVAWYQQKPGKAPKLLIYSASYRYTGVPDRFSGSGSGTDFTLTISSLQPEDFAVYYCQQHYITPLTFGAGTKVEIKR", 3.6),
    ("TBD-1 wt (Fab, V domains shown, Fab; the heavy chain entry is VH-CH1; also called wild-type anti-TROP2 Fab (hRS7); TROP2 Fab) VH: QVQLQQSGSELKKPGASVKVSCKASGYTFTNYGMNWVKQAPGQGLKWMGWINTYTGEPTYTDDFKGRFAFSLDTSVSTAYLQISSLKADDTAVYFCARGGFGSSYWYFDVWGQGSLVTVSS VL: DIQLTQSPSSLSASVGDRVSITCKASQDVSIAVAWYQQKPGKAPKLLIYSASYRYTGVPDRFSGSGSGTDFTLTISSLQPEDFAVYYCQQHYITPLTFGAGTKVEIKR", 37.5),
    ("TBD-21 (HC F108A) (Fab, V domains shown, Fab; also called HC F108A mutant) VH: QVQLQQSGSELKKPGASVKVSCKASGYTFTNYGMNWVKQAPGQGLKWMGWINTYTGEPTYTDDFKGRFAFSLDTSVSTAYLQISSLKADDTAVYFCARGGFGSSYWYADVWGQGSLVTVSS VL: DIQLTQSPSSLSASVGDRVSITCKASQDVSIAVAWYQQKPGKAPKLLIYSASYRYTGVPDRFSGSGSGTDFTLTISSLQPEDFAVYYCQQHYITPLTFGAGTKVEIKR", 27.4),
    ("TBD-11 (HC R98A) (Fab, V domains shown, Fab; also called HC R98A mutant) VH: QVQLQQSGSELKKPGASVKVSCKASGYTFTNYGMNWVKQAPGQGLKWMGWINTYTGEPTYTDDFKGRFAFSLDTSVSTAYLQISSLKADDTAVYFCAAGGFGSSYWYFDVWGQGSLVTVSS VL: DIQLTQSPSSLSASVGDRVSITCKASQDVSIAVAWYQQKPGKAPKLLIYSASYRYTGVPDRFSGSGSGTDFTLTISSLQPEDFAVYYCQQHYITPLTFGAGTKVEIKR", 343),
    ("TBD-6 (LC I93A) (Fab, V domains shown, Fab; also called LC I93A mutant) VH: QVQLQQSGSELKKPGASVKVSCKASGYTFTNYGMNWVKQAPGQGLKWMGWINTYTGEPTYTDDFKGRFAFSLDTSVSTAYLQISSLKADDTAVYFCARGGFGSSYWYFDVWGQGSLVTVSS VL: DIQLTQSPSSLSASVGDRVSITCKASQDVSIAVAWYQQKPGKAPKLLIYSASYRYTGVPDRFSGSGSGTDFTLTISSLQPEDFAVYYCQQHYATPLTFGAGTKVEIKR", 59.6),
]
